Biological target: human STAT6/pIL-4Rα (Homo sapiens, UniProt P42226)
Construct: histidine tag
Sequence (P42226 123-658): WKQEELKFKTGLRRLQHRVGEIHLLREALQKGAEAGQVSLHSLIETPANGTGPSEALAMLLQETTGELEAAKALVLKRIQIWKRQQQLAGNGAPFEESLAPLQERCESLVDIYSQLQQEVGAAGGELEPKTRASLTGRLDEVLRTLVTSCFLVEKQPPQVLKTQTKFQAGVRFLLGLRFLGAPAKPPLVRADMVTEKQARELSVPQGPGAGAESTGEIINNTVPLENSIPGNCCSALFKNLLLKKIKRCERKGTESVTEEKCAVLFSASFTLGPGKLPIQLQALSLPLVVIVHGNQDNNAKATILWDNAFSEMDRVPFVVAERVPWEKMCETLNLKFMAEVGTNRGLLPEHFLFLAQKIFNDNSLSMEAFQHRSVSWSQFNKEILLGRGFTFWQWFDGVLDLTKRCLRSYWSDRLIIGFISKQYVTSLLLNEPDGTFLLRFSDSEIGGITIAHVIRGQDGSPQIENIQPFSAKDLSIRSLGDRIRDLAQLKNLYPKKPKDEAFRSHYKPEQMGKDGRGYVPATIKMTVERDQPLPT
Test: Binding inhibitory activity between human STAT6/pIL-4Rα by fluorescence polarization method
Conditions: rhSTAT6 (123-658) / FAM-pIL-4Rα peptide
Result type: IC50 (nM)

# example entries with known answers
COCCn1c(-c2ccc(-n3c(C)nn(C)c3=O)cc2)cc2cc(C(F)(F)F)cc(C(=O)Nc3cccc(C(=O)Nc4ccc(C)nn4)c3)c21 : 350
COCCn1c(-c2ccc(-n3c(C)nn(C)c3=O)cc2)cc2ccnc(C(=O)Nc3cccc(C(N)=O)c3F)c21 : 390
CNC(=O)c1cc(NC(=O)c2cc(C(F)(F)F)cc3cc(-c4ccc(-n5c(C)nn(C)c5=O)cc4)n(CCOC)c23)ccc1F : 490
CCn1c(-c2ccc(-n3c(C)nn(C)c3=O)cc2)cc2c(F)ccc(C(=O)Nc3cccc(C(N)=O)c3F)c21 : 590
Cn1ncn(-c2ccc(-c3cc4cc(C(F)(F)F)cc(C(=O)Nc5ccc(F)c(C(N)=O)c5)c4[nH]3)cc2)c1=O : 450

A: CCc1nn(C)c(=O)n1-c1ccc(-c2cc3cc(C(F)(F)F)cc(C(=O)Nc4ccc(F)c(C(N)=O)c4)c3n2CC)cc1
B: CCn1c(-c2ccc(-n3c(C)nn(C)c3=O)cc2)cc2cc(C#N)cc(C(=O)Nc3ccc(F)c(C(N)=O)c3)c21
QUERY: Between A and B , which one shows the smaller IC50 number? Output the label that corresponds to your choice.
RESULT: A
(A: 380 nM, B: 560 nM)

I: CCn1c(-c2ccc(N3C(=O)C(C)CC3C)cc2)cc2ccnc(C(=O)Nc3ccc(F)c(C(=O)NCC#N)c3)c21 (centres unmarked)
II: COCCn1c(-c2ccc(-n3c(C)nn(C)c3=O)cc2)cc2cc(C(F)(F)F)cc(C(=O)Nc3cccc(C(=O)Nc4cccc(OC)n4)c3)c21
QUERY: Between I and II , which one shows the smaller IC50 number? Output the label that corresponds to your choice.
RESULT: II
(II: 340 nM, I: 780 nM)

1: CCn1c(-c2ccc(-n3c(C)nn(C)c3=O)cc2)cc2cccc(C(=O)Nc3cccc(C(N)=O)c3F)c21
2: COCCn1c(-c2ccc(-n3c(C)nn(C)c3=O)cc2)cc2cc(C(F)(F)F)nc(C(=O)Nc3cccc(C(N)=O)c3F)c21
QUERY: Between 1 and 2 , which one shows the smaller IC50 number? Output the label that corresponds to your choice.
RESULT: 2
(2: 290 nM, 1: 550 nM)

----------
Target: human STAT6/pIL-4Rα (Homo sapiens)
Construct: histidine tag
Test: Binding inhibitory activity between human STAT6/pIL-4Rα by fluorescence polarization method
Conditions: rhSTAT6 (123-658) / FAM-pIL-4Rα peptide
Source text: Test Example 1: Measurement of Binding Inhibitory Activity Between Human STAT6/pIL-p 4Rα by Fluorescence Polarization Method 1) Construction of Histidine Tag-Fused Recombinant Human STAT6 (123 to 658 Region) […] 2) Measurement of Binding Inhibitory Activity Between Human STAT6/pIL-4Rα by Fluorescence Polarization Method […]
Result type: IC50 (µM)

# example entries with known answers
CCn1c(-c2ccc(-n3c(C)nn(C)c3=O)cc2)cc2cc(C(F)(F)F)cc(C(=O)Nc3ccc(F)c(C(N)=O)c3)c21 [Ex. 39] : 1.2
CCn1c(-c2ccc(-n3c(C)nn(C)c3=O)cc2)cc2cc(C(F)(F)F)cc(C(=O)Nc3cccc(C(=O)NC)c3)c21 [Ex. 40] : 0.29
CCn1c(-c2ccc(-n3c(C(F)F)nn(C)c3=O)cc2)cc2cc(C(F)(F)F)cc(C(=O)Nc3ccc(F)c(C(N)=O)c3)c21 [Ex. 154] : 0.28

I: CCn1c(-c2ccc(-n3c(C)nn(C)c3=O)cc2)cc2cc(C(F)(F)F)nc(C(=O)Nc3cccc(C(N)=O)c3F)c21 [Ex. 83]
II: COCCn1c(-c2ccc(-n3c(C)nn(C)c3=O)cc2)cc2ccnc(C(=O)Nc3cccc(C(N)=O)c3)c21 [Ex. 106]
III: CCn1c(-c2ccc(-n3c(C)nn(C)c3=O)cc2)cc2cc(C(F)(F)F)cc(C(=O)Nc3cccc(OC)n3)c21 [Ex. 102]
IV: CCn1c(-c2ccc(-n3cnn(C)c3=O)cc2)cc2cc(C(F)(F)F)cc(C(=O)Nc3ccc(F)c(C(N)=O)c3)c21 [Ex. 45]
QUERY: Arrange the 4 entries by IC50 so the values rise. # list labels per requested ordering
RESULT: IV, I, II, III
(IV: 0.25 µM, I: 0.37 µM, II: 1.97 µM, III: 2.82 µM)

----------
Molecular target: human STAT6/pIL-4Rα (Homo sapiens)
Construct: histidine tag
Assay: Binding inhibitory activity between human STAT6/pIL-4Rα by fluorescence polarization method
Settings: rhSTAT6 (123-658) / FAM-pIL-4Rα peptide
Result type: IC50 (nM)

# example entries with known answers
COCCn1c(-c2ccc(N(C)C(C)=O)cc2)nc2cc(CCC(C)(C)OC)cc(C(=O)Nc3cccc(C(N)=O)c3)c21 [Ex. 205] : 8440
CCn1c(-c2ccc(-n3c(C)nn(C)c3=O)cc2)cc2cc(C(F)(F)F)nc(C(=O)Nc3cccc(C(N)=O)c3)c21 [Ex. 96] : 1890
CCn1c(-c2ccc(N3C(=O)C(C)CC3C)cc2)cc2cccc(C(=O)Nc3ccc(F)c(C(N)=O)c3)c21 (stereo not shown) [Ex. 158] : 730
CCn1c(-c2ccc(N3C(=O)C(C)CC3C)cc2)cc2cc(C(F)(F)F)cc(C(=O)Nc3cccc(C(N)=O)c3)c21 (stereo not shown) [Ex. 159] : 530

P: CCn1c(-c2ccc3c(c2)CCN(C(C)=O)C3)nc2cc(C(F)(F)F)cc(C(=O)Nc3cccc(C(N)=O)c3)c21 [Ex. 3]
Q: COCCn1c(-c2ccc(-n3c(C)nn(C)c3=O)cc2)cc2cc(C(F)(F)F)cc(C(=O)Nc3ccccn3)c21 [Ex. 69]
R: COCCn1c(-c2ccc(-n3c(C)nn(C)c3=O)cc2)cc2cc(C(F)(F)F)cc(C(=O)Nc3cccnc3OC)c21 [Ex. 70]
QUERY: Arrange the 3 entries by IC50 so the values rise. # list labels per requested ordering
RESULT: Q, R, P

----------
Biological target: human STAT6/pIL-4Rα (Homo sapiens)
Construct: histidine tag
Sequence (P42226 123-658): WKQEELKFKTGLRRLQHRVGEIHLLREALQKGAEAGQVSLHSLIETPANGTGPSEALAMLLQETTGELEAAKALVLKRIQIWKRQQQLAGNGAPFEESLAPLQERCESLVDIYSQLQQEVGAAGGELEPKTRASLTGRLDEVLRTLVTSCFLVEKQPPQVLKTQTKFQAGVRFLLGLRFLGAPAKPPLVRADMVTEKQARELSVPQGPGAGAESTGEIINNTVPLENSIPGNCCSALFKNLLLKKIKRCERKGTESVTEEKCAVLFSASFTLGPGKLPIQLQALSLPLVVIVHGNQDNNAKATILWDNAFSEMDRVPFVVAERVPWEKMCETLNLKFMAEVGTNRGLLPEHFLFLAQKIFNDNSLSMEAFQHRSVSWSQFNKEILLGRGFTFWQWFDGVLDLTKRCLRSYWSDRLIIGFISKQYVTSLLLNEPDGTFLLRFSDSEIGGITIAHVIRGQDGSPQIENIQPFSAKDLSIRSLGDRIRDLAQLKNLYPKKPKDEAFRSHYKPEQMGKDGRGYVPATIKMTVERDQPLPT
Assay: Binding inhibitory activity between human STAT6/pIL-4Rα by fluorescence polarization method
Settings: rhSTAT6 (123-658) / FAM-pIL-4Rα peptide
Result type: IC50 (nM)

# example entries with known answers
CCn1c(-c2ccc(-n3c(C)nn(C)c3=O)cc2C(F)(F)F)cc2cc(C(F)(F)F)cc(C(=O)Nc3ccc(F)c(C(N)=O)c3)c21 : 650
CCn1c(-c2ccc(-n3c(C)nn(C)c3=O)cc2)cc2cncc(C(=O)Nc3ccc(F)c(C(N)=O)c3)c21 : 430
CCn1c(-c2ccc(-n3c(C)nn(C)c3=O)cc2)cc2ccnc(C(=O)Nc3cccc(C(=O)Nc4cn(C)c(=O)n(C)c4=O)c3)c21 : 350
COCCn1c(-c2ccc(N(C)C(C)=O)cc2)nc2cc(COC)cc(C(=O)Nc3cccc(C(N)=O)c3)c21 : 2940
Cc1nn(C)c(=O)n1-c1ccc(-c2cc3ccnc(C(=O)Nc4cccc(C(=O)Nc5cccn(C)c5=O)c4)c3n2CC2CC2)cc1 : 270

A: CC1CC(C)N(c2ccc(-c3cc4ccnc(C(=O)Nc5ccc(F)c(C(N)=O)c5)c4n3CC3(C#N)CC3)cc2)C1=O (single isomer, unassigned) [Ex. 222]
B: COCCn1c(-c2ccc(-n3c(C)nn(C)c3=O)cc2)cc2cc(C(F)(F)F)cc(C(=O)Nc3cccc(C(=O)Nc4ccn(CC#N)n4)c3)c21
QUERY: Larger number for IC50: A , or B ? Output the label that corresponds to your choice.
RESULT: A

A: CCn1c(-c2ccc(N3C(=O)C(C)CC3C)cc2)nc2cc(C(F)(F)F)cc(C(=O)Nc3cccc(C(N)=O)c3F)c21 (single isomer, unassigned) [Ex. 219]
B: COCCn1c(-c2ccc(-n3c(C)nn(C)c3=O)cc2)cc2cc(C(F)(F)F)cc(C(=O)Nc3cccc(C#N)c3)c21
C: COCCn1c(-c2ccc(N(C)C(C)=O)cc2)nc2cc(C3CCCC3)cc(C(=O)Nc3cccc(C(N)=O)c3)c21
D: C=Cc1cc(C(=O)Nc2cccc(C(N)=O)c2)c2c(c1)nc(-c1ccc(N(C)C(C)=O)cc1)n2CCOC
QUERY: hey, can you rank those molecules up there by IC50? biggest number first please # list labels per requested ordering
RESULT: C, D, A, B
(C: 9030 nM, D: 2950 nM, A: 280 nM, B: 190 nM)

I: CCn1c(-c2ccc(-n3c(C)nn(C)c3=O)cc2)cc2ccnc(C(=O)Nc3ccc(F)c(C(=O)Nc4ccc(C)n(C)c4=O)c3)c21
II: CCn1c(-c2ccc(C(=O)N(C)C)cc2)cc2cc(C(F)(F)F)cc(C(=O)Nc3ccc(F)c(C(N)=O)c3)c21
QUERY: Between I and II , which one shows the smaller IC50 number? Output the label that corresponds to your choice.
RESULT: I
(I: 290 nM, II: 940 nM)

P: Cc1nn(C)c(=O)n1-c1ccc(-c2cc3cccc(C(=O)Nc4cccc(C(N)=O)c4F)c3n2CC2CC2)cc1
Q: CCn1c(-c2ccc(-n3c(C)nn(C)c3=O)cc2)c(I)c2cncc(C(=O)Nc3ccc(F)c(C(N)=O)c3)c21
QUERY: Larger number for IC50: P , or Q ? Output the label that corresponds to your choice.
RESULT: Q
(Q: 2720 nM, P: 380 nM)

1: COCCn1c(-c2ccc(N(C)C(C)=O)cc2)nc2cc(CO)cc(C(=O)Nc3cccc(C(N)=O)c3)c21
2: CCn1c(-c2ccc(-n3c(C)nn(C)c3=O)cc2)cc2nccc(C(=O)Nc3ccc(F)c(C(N)=O)c3)c21
3: CCn1c(-c2ccc(N3C(=O)C(C)CC3C)nc2)cc2cc(C(F)(F)F)cc(C(=O)Nc3ccc(F)c(C(N)=O)c3)c21 (stereo not drawn)
QUERY: Arrange the 3 entries by IC50 so the values rise. # list labels per requested ordering
RESULT: 3, 2, 1

I: COCCn1c(-c2ccc(-n3c(C)nn(C)c3=O)cc2)cc2ccnc(C(=O)Nc3ccc(F)c(C(N)=O)c3)c21
II: CCn1c(-c2ccc(-n3c(C)nn(C)c3=O)cc2)cc2cc(C(F)(F)F)cc(C(=O)Nc3ccc(CNC(C)=O)cc3)c21
III: CCn1c(-c2ccc(N3C(=O)C(C)CC3C)cc2)cc2ccnc(C(=O)Nc3cccc(C(N)=O)c3)c21 (stereo not drawn)
QUERY: Arrange the 3 entries by IC50 so the values rise. # list labels per requested ordering
RESULT: I, III, II
(I: 350 nM, III: 510 nM, II: 2070 nM)

A: CCn1c(-c2ccc3c(c2)CCN3C(C)=O)nc2cc(C(F)(F)F)cc(C(=O)Nc3cccc(C(N)=O)c3F)c21
B: CC1CC(C)N(c2ccc(-c3cc4ccnc(C(=O)Nc5cccc(C(N)=O)c5F)c4n3CC3(C#N)CC3)cc2)C1=O (single isomer, unassigned) [Ex. 224]
QUERY: Larger number for IC50: A , or B ? Output the label that corresponds to your choice.
RESULT: B

1: CCn1c(-c2ccc(-n3c(C)nn(C)c3=O)cc2)cc2cc(F)cc(C(=O)Nc3cccc(C(N)=O)c3F)c21
2: COCCn1c(-c2ccc(-n3c(C)nn(C)c3=O)cc2)cc2cc(C(F)(F)F)cc(C(=O)Nc3cc[nH]n3)c21
QUERY: Between 1 and 2 , which one shows the smaller IC50 number? Output the label that corresponds to your choice.
RESULT: 1
